Every entry's value here was drawn from patent US20240239811A1.

- Test system: HTT mRNA
- PROTOCOL: Splicing assay (RT-qPCR) monitoring HTT splice variants, canonical (CJ) and alternative (AJ) junction
- Type: cell-based
- STUDY CONDITIONS: decrease in CJ mRNA, 50% response, A673 or K562 cell line, 24 hours
pIC50: −log10 of the molar value. Structures can show the parent of a compound that is named as a salt.
Recorded pIC50, one value per entry.

Answered examples (3):
Cn1cc2c(O)c(-c3nc4sc(C5CCNCC5)cc4s3)ccc2n1 ... 5.00 to 6.00
Cc1cn2nc(-n3cc4sc(C5CCNCC5)cc4n3)nc2c(C)n1 ... 5.00 to 6.00
CC1CN(c2cc3sc(-c4cc(F)c5nn(C)cc5c4)nc3s2)CCN1C (stereo not drawn) ... 5.00 to 6.00

Query :: What measured pIC50 goes with Cc1cn2cc(-n3cc4sc(C5CCNCC5)cc4n3)cc(F)c2n1 ?
Result :: 6.00 to 7.00

Query :: Quick check: pIC50 of Cn1cc2cc(-c3nc4sc(N5CCNCC5)c(Cl)c4s3)cc(F)c2n1 ?
Result :: 6.00 to 7.00

Query :: Look up pIC50: Cn1cc2cc(-c3cc4cn([C@@H]5CCNC5)nc4s3)cc(F)c2n1 [Compound 160, hydrochloride]
Result :: 5.00 to 6.00

Query :: Would you kindly share the measured pIC50 for Cn1cc2cc(-c3cc4cn(C5CCNCC5)nc4s3)c(O)cc2n1 ?
Result :: 6.00 to 7.00

Query :: Which value of pIC50 has been reported for Cc1cn2nc(-n3cc4sc(C5CCNCC5)cc4n3)cc2c(C)n1 in the records?
Result :: 6.00 to 7.00

Query :: # pIC50 lookup, item Cn1cc2cc(-c3nc4sc(C5(O)CCNCC5)cc4s3)cc(F)c2n1
Result :: 6.00 to 7.00

Query :: # get_value(readout='pIC50', item= CC1CN(c2cc3sc(-c4cc(F)c5nn(C)cc5c4)nc3s2)CCN1 (stereo not drawn) )
Result :: 6.00 to 7.00

Query :: Need pIC50 of Cc1nc2c(F)cc(-c3nc4sc(C5CCNCC5)cc4s3)cc2o1 , thanks.
Result :: > 7.00

Query :: Any idea what pIC50 was measured for CN1CCCC2(CCN2c2cc3sc(-c4cc(F)c5nn(C)cc5c4)nc3s2)C1 (stereo not drawn) ?
Result :: < 5.00

Query :: Item COc1c(-c2cc3cn(C4CCNCC4)nc3s2)cc(F)c2nn(C)cc12 has what recorded pIC50?
Result :: < 5.00

Query :: Look up pIC50: Cn1cc2cc(-c3nc4sc(N5CCC56CCNC6)cc4s3)cc(F)c2n1 (stereo not drawn)
Result :: < 5.00

Query :: Find the recorded pIC50 belonging to CN1CCC(c2cc3sc(-c4cc(F)c5nn(C)cc5c4)nc3s2)CC1 and report it.
Result :: > 7.00

Query :: Which pIC50 value is on record for Cn1cc2cc(-c3cc4cn(C5CCNCC5)nc4s3)c(O)c(F)c2n1 ?
Result :: 6.00 to 7.00

Query :: Reported pIC50 for C[C@@H]1C[C@H](c2cc3sc(-c4cc(F)c5nn(C)cc5c4)nc3s2)CCN1 : what is it?
Result :: > 7.00

---

Below, each of the molecules is paired with its reported IC50 value.
- System: HTT mRNA
- PROTOCOL: Splicing assay (RT-qPCR) monitoring HTT splice variants, canonical (CJ) and alternative (AJ) junction
- Format: cell-based
- STUDY CONDITIONS: decrease in CJ mRNA, 50% response, A673 or K562 cell line, 24 hours
Counter-ions that a name gives are not always drawn.

Check out these entries, answers already filled in.
Cn1cc2cc(-c3cc4nn(C5CCNCC5)cc4s3)cc(F)c2n1 ... 0.1 to 1 µM
Cc1cn2nc(-c3cc4cn(C5CCNCC5)nc4s3)c(O)c2c(C)n1 [Compound 213, hydrochloride] ... 1 to 10 µM
Cn1cc2cc(-n3cc4cc(C5CCNCC5)sc4n3)cc(F)c2n1 ... < 0.1 µM
Cn1cc2cc(-c3nc4sc(C5CCNCC5)cn4n3)cc(F)c2n1 ... > 10 µM
Cc1cn2nc(-c3nc4sc(C5CCOCC5)cc4s3)cc(C)c2n1 ... 1 to 10 µM
CCNC1CCN(c2cc3sc(-c4cc(F)c5nn(C)cc5c4)nc3s2)CC1 ... 0.1 to 1 µM

Query :: Which value of IC50 has been reported for CN1CCC(n2cc3cc(-c4cc(F)c5nn(C)cc5c4)sc3n2)CC1 in the records?
Result :: 0.1 to 1 µM

Query :: Could you tell me which IC50 is on file for Cn1cc2cc(-c3cc4cn([C@H]5CCNC[C@H]5F)nc4s3)cc(F)c2n1 (stereo in doubt) ?
Result :: < 0.1 µM

---

AC50 reference
- System: HTT mRNA
- PROTOCOL: Splicing assay (RT-qPCR) monitoring HTT splice variants, canonical (CJ) and alternative (AJ) junction
- Format: cell-based
- STUDY CONDITIONS: increase in AJ mRNA, 50% response, A673 or K562 cell line, 24 hours
Counter-ions that a name gives are not always drawn.

The following compounds have reported results that may help.
Cc1cn2cc(-c3nc4sc(C5CCNCC5)cc4s3)cc(C)c2n1 [Compound 140, hydrochloride] ... < 100 nM
Cn1cc2cc(-c3nc4sc(C5CCNCC5)cn4n3)cc(F)c2n1 ... > 10000 nM
Cn1cc2cc(-n3cc4cc(C5CCNCC5)sc4n3)c(O)cc2n1 ... 1000 to 10000 nM
Cn1cc2cc(-c3cc4cn(C5=CCOCC5)nc4s3)cc(F)c2n1 ... > 10000 nM

Consider the record given below.
Query :: Item under review: Cc1cn2cc(-c3cc4cn(C5CCNCC5)nc4s3)cc(Cl)c2n1 . Reported AC50?
Result :: < 100 nM

---

- Test system: HTT mRNA
- PROTOCOL: Splicing assay (RT-qPCR) monitoring HTT splice variants, canonical (CJ) and alternative (AJ) junction
- Type: cell-based
- STUDY CONDITIONS: decrease in CJ mRNA, 50% response, A673 or K562 cell line, 24 hours
Where a name gives a salt, the structure may show the parent alone.
Listed molecules paired with reported IC50

Record excerpt, results attached:
Cn1cc2cc(-c3nc4sc(N5CCN6CCCC6C5)cc4s3)cc(F)c2n1 (stereo not drawn) [Compound 144] ... 1 to 10 µM
Cc1cn2cc(-n3cc4sc(C5CCNCC5)cc4n3)nc2c(C)n1 [Compound 181] ... 1 to 10 µM
Cc1cn2cc(-c3nc4sc(C5CCNCC5)cc4s3)cc(C)c2n1 [Compound 140, hydrochloride] ... < 0.1 µM

Query :: Query (molecule): Cc1cn2nc(-c3cc4cn(C5CCNCC5)nc4s3)cc(C)c2n1 [Compound 162] ; field requested: IC50
Result :: < 0.1 µM

Query :: Give the measured IC50 of Cc1cn2cc(-n3cc4cc(C5CCNCC5)sc4n3)cc(Cl)c2n1 [Compound 165] .
Result :: < 0.1 µM

Query :: Report IC50 for Cc1cn2nc(-c3nc4sc(C5=CCNCC5)cc4s3)cc(C)c2n1 [Compound 198] please.
Result :: < 0.1 µM

Query :: Using the record for Cn1cc2cc(-c3cn4nc(C5CCNCC5)nc4s3)cc(F)c2n1 [Compound 102] , report its IC50.
Result :: 0.1 to 1 µM

Query :: Item under review: Cc1cn2cc(-c3nc4sc(C5CCNCC5)cc4s3)cc(Cl)c2n1 [Compound 139] . Reported IC50?
Result :: < 0.1 µM

Query :: Consider the molecule CN(C)C1CCN(c2cc3sc(-c4cc(F)c5nn(C)cc5c4)nc3s2)CC1 [Compound 154] and give its measured IC50.
Result :: 0.1 to 1 µM

Query :: # get_value(readout='IC50', item= Cn1cc2cc(-n3cc4sc(C5CCNCC5)cc4n3)c(O)cc2n1 [Compound 178] )
Result :: 1 to 10 µM

Query :: Value lookup for IC50; key = Cn1cc2cc(-c3cc4cn(C5CCOCC5)nc4s3)cc(F)c2n1 [Compound 161]
Result :: > 10 µM

Query :: Looking for the measured IC50 of CN(c1cc2sc(-c3ccc(-c4cn[nH]c4)cc3O)nc2s1)[C@@H]1C[C@H]2CC[C@@H](C1)N2 [Compound 191] , can you help?
Result :: > 10 µM

Query :: What value of IC50 has been reported for the following molecule? Cc1cn2cc(-c3cc4cn(C5CCNCC5)nc4s3)ncc2n1 [Compound 223]
Result :: 1 to 10 µM

Query :: Form field: reported IC50 of COc1c(-c2nc3sc(C4CCNCC4)cc3s2)cc(F)c2nn(C)cc12 [Compound 237]
Result :: > 10 µM

Query :: Give the measured IC50 of Cn1cc2cc(-c3cc4cn(C5CCNCC5)nc4s3)cc(F)c2n1 [Compound 122] .
Result :: < 0.1 µM

Query :: State the recorded IC50 for this entry: Cc1cn2cc(-n3cc4sc(C5CCNCC5)cc4n3)ncc2n1 [Compound 169]
Result :: 1 to 10 µM

Query :: Returns the measured IC50 for the input molecule. Input: Cc1cn2nc(-n3cc4sc(C5CCNCC5)cc4n3)cc(C)c2n1 [Compound 101]
Result :: < 0.1 µM

Query :: Fill in: IC50 of Cn1cc2cc(-c3nc4sc(N5CCC56CCCNC6)cc4s3)cc(F)c2n1 (stereo not drawn) [Compound 202] is ___
Result :: > 10 µM
